Test system: MCF7 breast
assay-name: NCI tumour cell line growth inhibition, 48 h; in the data active = GI50 below about 0.43 µM; inactive = the rest
In this exercise, the only acceptable responses are Yes = active, No = inactive

1) C#CCNCCCN1C(=O)c2ccc3c4c(ccc(c24)C1=O)C(=O)N(CCCNCC#C)C3=O | Yes

Recorded test call requested for Nc1c(C(=O)N/N=C/c2ccco2)cnn1-c1ccnc2c(C(F)(F)F)cccc12
No

Same again, this time with CCNCCNc1cc(-c2ccc(Cl)c(Cl)c2)c(C#N)c2nc3ccccc3n12
No

Same again, this time with CCCCCC[n+]1noc(N)c1-c1ccc(-c2c(N)on[n+]2CCCCCC)cc1
No

----------
System: NCI/ADR-RES ovarian
assay-name: NCI tumour cell line growth inhibition, 48 h
experimental-endpoint: TGI (µM)
Provide the reading as a plain figure in µM.

Record excerpt, results attached:
1. CN1CCC(CN2c3ccccc3Sc3ccccc32)C1 (centres undefined) | 29.8
2. N#CC(NCCc1ccccc1)c1ccc(C(C#N)NCCc2ccccc2)cc1 (centres undefined) | 57.5
3. C#CCNCCCN1C(=O)c2ccc3c4c(ccc(c24)C1=O)C(=O)N(CCCNCC#C)C3=O | 3.81

Query the reported TGI for NCI/ADR-RES ovarian; item: CN1CCN(Cc2nc3cccc4c3c([n+]2[O-])-c2ccccc2-4)CC1
48.3

Same again, this time with C/C(=N\Nc1nc2ccccc2o1)c1ccc2ccccc2n1
26.5

Same again, this time with O=S(=O)(Nc1cc(F)cc(F)c1)c1ccc(-c2cnc(C3CC3)o2)cc1
68.1

Same again, this time with COc1cc(-c2cc(-c3nc4ccc(F)cc4[nH]3)[nH]n2)cc(OC)c1OC
9.2

Same again, this time with COc1ccc(C(O)c2cc3c(N)c(C(=O)Nc4ccccc4)sc3nc2C)cc1 (centres undefined)
2.02

----------
Test system: 786-0 renal
assay-name: NCI tumour cell line growth inhibition, 48 h
experimental-endpoint: TGI

Record excerpt, results attached:
1) CCOC(=O)C(C(=O)OCC)C1C=CCC2c3ccccc3COCC21 (stereo unspecified) | > 100 µM
2) CC1(C)OCC[C@@H]1[Si](C)(C)C | > 100 µM
3) N#Cc1c(=N)cc2c3ccccc3oc3c(C#N)c(N)[nH]c1c32 | > 100 µM
4) CCCCCCC(O)(c1ccc(F)cc1)C(CN1CCOCC1)c1ccccc1 (stereo unspecified) | 27.3 µM
5) O=C1c2ccccc2S(=O)(=O)N1CSC(=S)N1CCOCC1 | > 100 µM

Request the reported TGI associated with CN(C)N=Nc1cn[nH]c1C(N)=O
> 100 µM

Same again, this time with CCCCCCCC/C(=C\C1=C(C)C(=O)C(OC)=C(OC)C1=O)C(=O)O
> 100 µM

----------
System: MCF7 breast
assay-name: NCI tumour cell line growth inhibition, 48 h; in the data active means GI50 below about 0.43 µM; inactive means the rest
Where a SMILES comes first, the peptide text is derived from it.
In this exercise, the only acceptable responses are YES = active, NO = inactive

1. CCCCCCCCn1ccc2cc(NC(=O)Cn3cc(CN4CCN(CC)CC4)nn3)ccc21 | NO

Recorded test call requested for COc1ccc(/C=C/C(=O)Nc2cc(/C=C\c3cc(OC)c(OC)c(OC)c3)cc(OC)c2OC)cc1OC
NO

Same again, this time with Oc1ccc2c(c1)OCC1(O)Cc3cc(O)c(O)cc3C21 (stereo not drawn)
NO

Same again, this time with CCCCCCC(O)(c1ccc(F)cc1)C(CN1CCOCC1)c1ccccc1 (stereo not drawn)
NO

Same again, this time with COc1cc2c3c(n(CCCN)c(=O)c2cc1OC)-c1ccc(N(C)C)cc1C3=O
NO

Same again, this time with O=Cc1cn(Cc2ccccc2)c2ccccc12
NO

Same again, this time with CCC(C)C1NC(=O)C(CCCCN)NC(=O)C(CCCCN)NC(=O)C(CC(C)C)NC(=O)C(CCCCN)NC(=O)C(C(C)CC)NC(=O)C(C(C)C)NC(=O)C(C(C)CC)NC(=O)C(CCCCN)NC(=O)C(CCCCN)NC(=O)C(C)NC(=O)C(CCCCN)NC(=O)C(CC(C)C)NC1=O (stereo not drawn) (cyclo(AKKIVIKLKKILK); configuration not given here)
NO

Same again, this time with COc1ccc(C(O)c2cc3c(N)c(C(=O)Nc4ccccc4)sc3nc2C)cc1 (stereo not drawn)
YES
